# System: Blood
# Protocol Summary: Drug uptake in […] blood at 8 MBq/200 mL, iv after 15 mins
# Assay type: ADME, organism-based
# Test Context: in vivo, 0.25 h

Compound: [11CH3]Oc1cc(C(=O)c2cccs2)cc(O)c1-c1cc(Cl)cc(Cl)c1
Target Desc: Blood
Display Unit: %
Drug uptake: 0.63
--
Compound: COc1cc(C(O)c2cccs2)cc(O[11CH3])c1-c1cc(Cl)cc(Cl)c1 (centres undefined)
Target Desc: Blood
Display Unit: %
Drug uptake: 2.25
--
Compound: COc1cc(C(=O)c2cccs2)cc(O[11CH3])c1-c1cc(Cl)cc(Cl)c1
Target Desc: Blood
Display Unit: %
Drug uptake: 3.45
--
Compound: [11CH3]Oc1cc(C(O)c2cccs2)cc(O)c1-c1cc(Cl)cc(Cl)c1 (centres undefined)
Target Desc: Blood
Display Unit: %
Drug uptake: 0.7

* * *

# Test system: Brain
# Protocol Summary: Drug uptake in […] brain at 8 MBq/200 mL, iv after 60 mins
# Assay type: ADME, organism-based
# Test Context: in vivo, 1 h
Measured Attribute: Drug uptake (%)

Compound: COc1cc(C(=O)c2cccs2)cc(O[11CH3])c1-c1cc(Cl)cc(Cl)c1
Measured Attribute: Drug uptake
Obs Value: 0.62

Compound: COc1cc(C(O)c2cccs2)cc(O[11CH3])c1-c1cc(Cl)cc(Cl)c1 (centres undefined)
Measured Attribute: Drug uptake
Obs Value: 0.65

Compound: [11CH3]Oc1cc(C(O)c2cccs2)cc(O)c1-c1cc(Cl)cc(Cl)c1 (centres undefined)
Measured Attribute: Drug uptake
Obs Value: 0.45

Compound: [11CH3]Oc1cc(C(=O)c2cccs2)cc(O)c1-c1cc(Cl)cc(Cl)c1
Measured Attribute: Drug uptake
Obs Value: 0.18

* * *

Listing of recorded Drug uptake by entry.
# Tested on: Blood
# Protocol Summary: Drug uptake in […] blood at 8 MBq/200 mL, iv after 1 min
# Type: ADME, organism-based
# Test Context: in vivo
Measured Attribute: Drug uptake (%)

Compound: COc1cc(C(=O)c2cccs2)cc(O[11CH3])c1-c1cc(Cl)cc(Cl)c1
Measured Attribute: Drug uptake
Display Unit: %
Obs Value: 2.71
--
Compound: COc1cc(C(O)c2cccs2)cc(O[11CH3])c1-c1cc(Cl)cc(Cl)c1 (centres undefined)
Measured Attribute: Drug uptake
Display Unit: %
Obs Value: 3.9
--
Compound: [11CH3]Oc1cc(C(=O)c2cccs2)cc(O)c1-c1cc(Cl)cc(Cl)c1
Measured Attribute: Drug uptake
Display Unit: %
Obs Value: 1.56
--
Compound: [11CH3]Oc1cc(C(O)c2cccs2)cc(O)c1-c1cc(Cl)cc(Cl)c1 (centres undefined)
Measured Attribute: Drug uptake
Display Unit: %
Obs Value: 2.2

* * *

# Tested on: Brain
# Protocol Summary: Drug uptake in […] brain at 8 MBq/200 mL, iv after 5 mins
# Format: ADME, organism-based
# Test Context: in vivo
Quick list: Drug uptake per entry.

Compound: COc1cc(C(O)c2cccs2)cc(O[11CH3])c1-c1cc(Cl)cc(Cl)c1 (centres undefined)
Drug uptake [%]: 1.87

Compound: [11CH3]Oc1cc(C(=O)c2cccs2)cc(O)c1-c1cc(Cl)cc(Cl)c1
Drug uptake [%]: 1.63

Compound: COc1cc(C(=O)c2cccs2)cc(O[11CH3])c1-c1cc(Cl)cc(Cl)c1
Drug uptake [%]: 1.29

Compound: [11CH3]Oc1cc(C(O)c2cccs2)cc(O)c1-c1cc(Cl)cc(Cl)c1 (centres undefined)
Drug uptake [%]: 2.07

* * *

# Tested on: Blood
# Protocol Summary: Drug uptake in […] blood at 8 MBq/200 mL, iv after 5 mins
# Assay type: ADME, organism-based
# Test Context: in vivo
Measured Attribute: Drug uptake (%)

Molecule: [11CH3]Oc1cc(C(=O)c2cccs2)cc(O)c1-c1cc(Cl)cc(Cl)c1
Measured Attribute: Drug uptake
Obs Value: 1
--
Molecule: COc1cc(C(=O)c2cccs2)cc(O[11CH3])c1-c1cc(Cl)cc(Cl)c1
Measured Attribute: Drug uptake
Obs Value: 2.93
--
Molecule: COc1cc(C(O)c2cccs2)cc(O[11CH3])c1-c1cc(Cl)cc(Cl)c1 (centres undefined)
Measured Attribute: Drug uptake
Obs Value: 2.12
--
Molecule: [11CH3]Oc1cc(C(O)c2cccs2)cc(O)c1-c1cc(Cl)cc(Cl)c1 (centres undefined)
Measured Attribute: Drug uptake
Obs Value: 1.18

Reference for the values: ChEMBL document CHEMBL1154937
